This listing pairs molecules with measured growth.
Test system: NCI/ADR-RES ovarian
Assay: NCI-60 one-dose screen, 48 h (100 = growth as untreated, 0 = no growth, -100 = all killed)
Conditions: 10 µM unless noted
Compounds without any hit were thinned out: in the full panel of roughly 83,000, 20% have a hit.
Report as a plain number; the unit % is understood.

Consider the molecule CCOC(=O)/C(C#N)=C1/NNC(=Nc2cccnc2)S1 and give its measured growth.
105

Consider the molecule CN1CCN(C(=O)[C@]23CCC(C)(C)C[C@H]2C2=CC[C@@H]4[C@@]5(C)C/C(=C/c6cccnc6)C(=O)C(C)(C)[C@@H]5CC[C@@]4(C)[C@]2(C)CC3)CC1 and give its measured growth.
59.1

Consider the molecule CC(=O)O[C@@H]1C2CCC3C(CC[C@@]4(C)C3CC[C@@H]4C(C)N(C)C)[C@@]2(C)CC[C@@H]1NC(=O)C=C(C)C (stereo partly specified) and give its measured growth.
37.6

Consider the molecule COc1ccc2c(c1)oc1c(C)c3c(c(C)c12)C(=O)N(CCN1CCOCC1)C3=O and give its measured growth.
104

Consider the molecule Cc1cc(Cl)nc(N(CCNc2ccnc3cc(Cl)ccc23)Cc2ccccn2)n1 and give its measured growth.
47.5

---
Consider the molecule CC1(C)CC[C@]23CC[C@]4(C)[C@H](CC[C@@H]5[C@@]6(C)CCCNC(C)(C)[C@@H]6CC[C@]54C)[C@H]2[C@H]1OC3 and give its measured growth.
-19.6

Consider the molecule CSc1nc2sc3cccc(Cl)c3n2c(=N)c1C#N and give its measured growth.
103

Consider the molecule N/C(=N\C(N)=N\c1nc2ccccc2s1)c1cnccn1 and give its measured growth.
61.7

Consider the molecule O=C(Nc1cccc(C(=O)N2CCc3ccc(Cl)cc32)c1)c1ccco1 and give its measured growth.
24.2

Consider the molecule [O-][n+]1c(Cl)cc(Cl)c2ccccc21 and give its measured growth.
101

Consider the molecule Cc1cc2nc3c4ccc(Br)cc4n(CCN(C)C)c3nc2cc1C and give its measured growth.
17

---

Test system: HCC-2998 colon
Assay: NCI-60 one-dose screen, 48 h
Settings: 10 µM unless noted
This is part of a sample that, as a whole, favours compounds with a hit. Of some 83,000 tested, about 20% had one in any assay. Calls of active or inactive are those of the source. How the source made its calls: active means growth percent below 10; inactive means the rest.
Your reply should match one of these outcome classes. true (1) for active, false (0) for inactive

Field: outcome | Entry: Cn1ccc2c1CC1CN(Cc3ccco3)C(=O)C1C2C(=O)O (configuration not stated)
false (0)

Field: outcome | Entry: CCc1c2c(nc3ccc(OCc4ccc(B(O)O)cc4)cc13)-c1cc3c(c(=O)n1C2)COC(=O)[C@]3(O)CC
false (0)

Field: outcome | Entry: O=S(=O)(NCCNc1nccc(-c2c(-c3cccc(O)c3)nc3occn23)n1)c1cccc(F)c1
false (0)

Field: outcome | Entry: C=C1C(=O)O[C@H]2[C@H]1CC/C(CNC(=O)CCc1ccc(OC)cc1)=C\CC[C@@]1(C)O[C@@H]21
false (0)

Field: outcome | Entry: NNC(=O)c1ccc(-n2nc(-c3ccccc3)c3ccccc32)cc1
false (0)

---
Field: outcome | Entry: CCOC(=O)CC1CSC(N/N=C/c2ccc(-n3cccn3)cc2)=N1 (configuration not stated)
false (0)

Field: outcome | Entry: COc1cc(/C=C\c2cc(OC)c(OC)c(OC)c2)cc(N)c1OC
false (0)

Field: outcome | Entry: Cn1c(N2NC(=O)C(N=Nc3ccc(S(N)(=O)=O)cc3)C2=O)nc(-c2ccco2)c(C#N)c1=O (configuration not stated)
false (0)

Field: outcome | Entry: O=C1Nc2cc(-c3ccc(NC(=O)C4CC4)cc3)ccc2/C1=C/c1ccc[nH]1
false (0)

Field: outcome | Entry: Cc1cccc(NC(=O)Nc2ccc(-c3ccc4c(c3)NC(=O)/C4=C\c3ccc[nH]3)cc2)c1
false (0)

Field: outcome | Entry: CCC(=O)Oc1ccc(/C(=C(\C)c2ccccc2)c2ccc(OCCN3CCCCC3)cc2)cc1
false (0)

Field: outcome | Entry: COC(=O)CNC(=O)[C@]12CCC(C)(C)C[C@H]1C1=CC[C@@H]3[C@@]4(C)Cc5c([nH]c6ccccc56)C(C)(C)[C@@H]4CC[C@@]3(C)[C@]1(C)CC2
false (0)

Field: outcome | Entry: Cc1nnc2c(Cc3ccccc3)nc3ccccc3n12
false (0)

Field: outcome | Entry: CCOC(=O)[C@@H](C)C[C@H](Cc1ccccc1)NC(=O)c1csc([C@@H](C[C@H](C(C)C)N(C)C(=O)[C@@H](NC(=O)[C@H]2C[C@H](O[Si](C)(C)C(C)(C)C)CCN2C)C(C)C)OC(C)=O)n1
true (1)

Field: outcome | Entry: CCOC(=O)Oc1c(OC)cc(C(=O)c2ccc(OC)c(OC(=O)CCl)c2OC)cc1OC
false (0)

Field: outcome | Entry: COC(=O)C1=C(C(=O)ON)[C@@H]2C=C[C@@]1([C@@H](Cc1ccccc1)Nc1ccccc1)O2
false (0)

Field: outcome | Entry: COc1cc(-c2csc(NC(=O)c3cc(F)cc(C(F)(F)F)c3)n2)cc(OC)c1OC
false (0)

Field: outcome | Entry: CCOC(=O)/C(C#N)=C1/NNC(=Nc2cccnc2)S1
false (0)
